Reference source for all entries: patent US20210324080A1

- TARGET OF ASSAY: T1, CTLA-4 on human T lymphocytes (PBMC, CD3+ T cells) (human, UniProt P16410 36-223)
- T1 sequence (looked up): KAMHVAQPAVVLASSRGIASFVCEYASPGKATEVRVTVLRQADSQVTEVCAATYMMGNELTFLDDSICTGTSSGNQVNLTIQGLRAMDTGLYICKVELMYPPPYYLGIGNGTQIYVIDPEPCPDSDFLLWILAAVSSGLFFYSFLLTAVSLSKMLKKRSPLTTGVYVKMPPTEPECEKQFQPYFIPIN
- ASSAY TEXT: cell-based or functional assay
Entries and their IL-2 secretion, pg/ml, at 0.13 ug/ml, N = 1
Just the number please, in pg/mL, no unit attached.

Record excerpt, results attached:
92C8B6 fully human CTLA-4 antibody (human IgG1, kappa) (antibody, V domains shown, also called mAb42; mAb042) VH: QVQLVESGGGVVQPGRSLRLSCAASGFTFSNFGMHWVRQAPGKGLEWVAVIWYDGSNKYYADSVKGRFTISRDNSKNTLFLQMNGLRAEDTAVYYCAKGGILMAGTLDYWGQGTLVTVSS VL: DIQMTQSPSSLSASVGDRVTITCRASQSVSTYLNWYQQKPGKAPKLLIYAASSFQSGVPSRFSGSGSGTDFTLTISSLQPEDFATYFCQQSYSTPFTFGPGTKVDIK = 1570
40C4C6 fully human CTLA-4 antibody (human IgG1, kappa) (antibody, V domains shown, also called mAb09; mAb009) VH: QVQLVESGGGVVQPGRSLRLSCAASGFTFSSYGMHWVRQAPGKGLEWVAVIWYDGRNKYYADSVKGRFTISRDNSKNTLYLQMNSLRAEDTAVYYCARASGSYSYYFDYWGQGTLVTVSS VL: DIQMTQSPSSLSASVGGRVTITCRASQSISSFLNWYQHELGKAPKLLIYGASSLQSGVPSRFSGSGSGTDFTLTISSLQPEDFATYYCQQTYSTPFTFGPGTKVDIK = 2140
97A8D1 fully human CTLA-4 antibody (human IgG1, kappa) (antibody, V domains shown, also called mAb49; mAb049) VH: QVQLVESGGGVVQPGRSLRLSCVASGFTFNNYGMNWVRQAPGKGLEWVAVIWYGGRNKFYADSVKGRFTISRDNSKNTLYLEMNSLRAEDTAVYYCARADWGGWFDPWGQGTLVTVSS VL: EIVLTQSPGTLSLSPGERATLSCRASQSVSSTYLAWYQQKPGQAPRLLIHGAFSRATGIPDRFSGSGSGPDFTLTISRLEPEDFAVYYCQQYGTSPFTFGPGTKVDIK = 1520

Next:
Per the records, this binder ( 31C12F3 fully human CTLA-4 antibody (human IgG1, kappa) (antibody, V domains shown, also called mAb010) VH: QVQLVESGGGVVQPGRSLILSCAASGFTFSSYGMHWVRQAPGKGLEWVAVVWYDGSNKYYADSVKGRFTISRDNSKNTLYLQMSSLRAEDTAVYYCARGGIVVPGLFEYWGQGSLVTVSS VL: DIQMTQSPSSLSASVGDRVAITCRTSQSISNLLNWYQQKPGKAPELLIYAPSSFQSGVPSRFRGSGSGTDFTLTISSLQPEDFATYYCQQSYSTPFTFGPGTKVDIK ) has IL-2 secretion, pg/ml, at 0.13 ug/ml, N = 1 equal to 1660
